assay: Primary qHTS for delayed death inhibitors of the malarial parasite plastid, 96 hour incubation; conditions: P. falciparum luciferase reporter growth; series mostly up to 28.7 µM
In all, about 320,000 compounds went through this assay and about 22,000 (6.9%) were called active. Inconclusive results (about 27%) are left out. Calls come from the whole dose curve; as a rule, active = well fitted inhibition curve with a large enough effect; inconclusive = small, poorly fitted or top-dose-only effect, or another doubt; inactive = no such curve, though single readings can be large or run the other way. Many of the other results were omitted from the sample, so actives are more common in it than they were.
Classes used: active, inactive

COMPOUND	CLASSIFICATION
CCCCn1c(N)c(N(CC)C(=O)c2ccc(N(C)S(=O)(=O)c3ccc(C)cc3)cc2)c(=O)[nH]c1=O	inactive
COc1cccc(CNC(=O)c2nnn(CC(=O)Nc3cc(C)ccc3C)c2N)c1	active
CCOc1ccc(Cn2nnc(C(=O)NCc3ccccc3)c2N)cc1	inactive
COc1ccc(C)cc1N(C(=O)Cn1nnc(-c2ccc(C)o2)n1)C(C(=O)NC1CCCC1)c1ccncc1 (centres undefined)	active
COc1cccc(N(CC(=O)NC2CCCC2)C(=O)Cn2nnc(-c3ccc(C)o3)n2)c1	active
c1ccc2c(c1)CCc1snnc1-2	inactive
COc1ccc(C(C(=O)NC2CCCC2)N(CCCO)C(=O)Cn2nnc(-c3ccc(C)o3)n2)cc1 (centres undefined)	active
CCSc1nc(-c2ccc(OC)cc2)cc(-c2ccc(OC)cc2)c1C#N	active
COC(=O)c1c(NC(=O)c2ccccc2F)sc2c1C(C(=O)OC)CC2 (centres undefined)	inactive
COC(=O)c1c(-c2ccc(C)cc2)csc1N	active
CCC(C(=O)NC1CCCC1)N(C(=O)Cn1nnc(-c2ccc(C)o2)n1)c1ccc(OC)c(OC)c1 (centres undefined)	inactive
CCOCCCN(C(=O)Cn1nnc(-c2ccc(OC)c(OC)c2)n1)C(CC)C(=O)NC1CCCC1 (centres undefined)	inactive
Cc1cccc(N(C(=O)Cn2nnc(-c3ccc(C)o3)n2)C(C(=O)NC2CCCC2)c2ccncc2)c1 (centres undefined)	inactive
CC[C@]1([C@H]2O[C@@H]([C@@H]3O[C@](O)(CO)[C@@H](C)C[C@H]3C)C[C@H]2C)CC[C@@H]([C@]2(C)CC[C@@]3(C[C@@H](O)[C@@H](C)[C@@H]([C@H](C)[C@H](OC)[C@H](C)C(=O)O)O3)O2)O1	active
Cc1cccc(C(=O)N2CCN(S(=O)(=O)N3CCCCC3)CC2)c1	inactive
COc1ccc(-c2cn[nH]c2-c2ccc(OC)cc2)cc1	inactive
COc1ccc(-c2cc(-c3ccc(N)cc3)nc(N)c2C#N)cc1OC	inactive
COc1cccc(N(CC(=O)NC2CCCC2)C(=O)Cn2nnc(-c3ccc(C)cc3)n2)c1	inactive
N#Cc1c(-c2ccccc2)cc(-c2ccccc2)nc1SCC(=O)O	inactive
